Data provenance is paper PMC10138721.

Below, each of the compounds is paired with its reported pKi value.
# targetOfAssay: rhodesain (Trypanosoma brucei rhodesiense)
# Sequence (Q95PM0 entry or part of it): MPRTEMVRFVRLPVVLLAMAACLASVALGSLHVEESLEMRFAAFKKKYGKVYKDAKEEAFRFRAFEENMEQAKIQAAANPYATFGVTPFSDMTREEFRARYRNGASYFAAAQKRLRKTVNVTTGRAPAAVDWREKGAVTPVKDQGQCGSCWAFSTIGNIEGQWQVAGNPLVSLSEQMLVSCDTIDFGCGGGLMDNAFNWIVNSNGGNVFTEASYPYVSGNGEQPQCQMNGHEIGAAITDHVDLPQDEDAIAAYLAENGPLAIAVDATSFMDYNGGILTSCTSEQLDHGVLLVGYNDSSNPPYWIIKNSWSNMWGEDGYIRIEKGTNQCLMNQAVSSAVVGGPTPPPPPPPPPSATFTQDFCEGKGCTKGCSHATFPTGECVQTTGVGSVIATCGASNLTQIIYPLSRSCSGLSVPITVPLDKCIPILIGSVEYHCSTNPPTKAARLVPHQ
# assayProtocol: Fluorometric inhibition assay, rhodesain
# Type: biochemical
# assayContext: Table S1; a) calculated from IC50 with Cheng–Prusoff, irreversible inhibitors from kobs fits; n.a. = not active at 20 µM; read-out: Ki, Rhodesain
Quick note: pKi means taking -log10 of the concentration in moles per liter.

Example entries and their recorded answers appear below.
CCOC(=O)/C=C/C(=O)[C@H](C[C@@H]1CCNC1=O)NC(=O)[C@H](CC(C)C)NC(=O)c1cc2c(OC)cccc2[nH]1 [compound 81] ... 7.00
COc1cccc2[nH]c(C(=O)N[C@@H](CC(C)C)C(=O)N[C@H](C#N)C[C@@H]3CCNC3=O)cc12 [compound 84] ... 7.38
COc1cccc2[nH]c(C(=O)N[C@@H](CC(C)C)C(=O)N[C@H](/C=C(\F)S(=O)(=O)c3ccccc3)C[C@@H]3CCNC3=O)cc12 [compound 94] ... 6.66

# evaluate next
I am curious: what pKi value has been reported for COc1cccc2[nH]c(C(=O)N[C@@H](CC(C)C)C(=O)N[C@H](/C=C/S(=O)(=O)c3ccccc3)C[C@@H]3CCNC3=O)cc12 [compound 93] ?
5.70
